The entries below come with measured Cmax values attached.
- assay_comment: Cmax in male Sprague-Dawley rat at 1 mg/kg, iv
- Format: ADME, organism-based
- setup_conditions: in vivo

| chemical_string | Cmax |
| --- | --- |
| [2H]C([2H])(OC(Cc1ccccc1)(C(=O)O)C(=O)O)c1n[nH]c2cc(-n3nnc4c(F)cc(Cl)cc43)ccc12 | 19100 ng/mL |

Consider the compound O=C(O)C(Cc1ccccc1)(OCc1n[nH]c2cc(-n3nnc4c(F)cc(Br)cc43)ccc12)C(=O)O and give its measured Cmax.
14500 ng/mL

* * *

The entries below come with measured CL/F values attached.
- assay_comment: Clearance in male Sprague-Dawley rat at 10 mg/kg, po
- Format: ADME, organism-based
- setup_conditions: in vivo
Write the number in mL/min/kg without appending the unit.

Consider the compound O=C(O)C(Cc1ccccc1)(OCc1n[nH]c2cc(-n3nnc4c(F)cc(Br)cc43)ccc12)C(=O)O and give its measured CL/F.
1210

Consider the compound [2H]C([2H])(OC(Cc1ccccc1)(C(=O)O)C(=O)O)c1n[nH]c2cc(-n3nnc4c(F)cc(Cl)cc43)ccc12 and give its measured CL/F.
1820

* * *

- assay_comment: Half life in male Sprague-Dawley rat
- Assay type: ADME
- setup_conditions: in vivo
readout_type: half-life (h)
Write the number in h without appending the unit.

Consider the compound O=C(O)C(Cc1ccccc1)(OCc1n[nH]c2cc(-n3nnc4c(F)cc(Cl)cc43)ccc12)C(=O)O and give its measured half-life.
2.1

* * *

- assay_comment: Half life in male Sprague-Dawley rat at 10 mg/kg, po
- Format: ADME, organism-based
- setup_conditions: in vivo
readout_type: half-life

| chemical_string | half-life |
| --- | --- |
| [2H]C([2H])(OC(Cc1ccccc1)(C(=O)O)C(=O)O)c1n[nH]c2cc(-n3nnc4c(F)cc(Cl)cc43)ccc12 | 2.1 h |

Consider the record given below.
Consider the compound O=C(O)C(Cc1ccccc1)(OCc1n[nH]c2cc(-n3nnc4c(F)cc(Br)cc43)ccc12)C(=O)O and give its measured half-life.
1.2 h
